// reported pIC50 for each item listed
target: 17-beta-hydroxysteroid dehydrogenase type 2 (Homo sapiens, UniProt P37059); experiment: Inhibitory concentration against 17 beta hydroxysteroid dehydrogenase type 2 (type II 17-beta-HSD II)
Scale for pIC50: -log10 of concentration given in mol/L; no unit attached.

Given CN1C(=O)C[C@H](c2ccccc2)[C@@H]1[C@@H](O)c1ccc(Br)o1 , state its recorded pIC50.
5.90

Thanks! And CNc1ccc([C@H]2CC(=O)N(C)[C@H]2[C@@H](O)c2ccc(-c3ccccc3)s2)cc1 ?
5.78

Please do the same for CN1C(=O)C[C@H](c2ccccc2)[C@@H]1[C@@H](O)c1cccc(Cl)c1 as well.
6.15

Query Cc1cccc([C@H](O)[C@H]2[C@@H](c3ccccc3)CC(=O)N2C)c1 next
5.82

Now consider CN1C(=O)C[C@H](c2ccccc2)[C@@H]1[C@@H](O)c1cccs1 .
6.40

Same question for CN1C(=O)C[C@H](c2ccccc2)[C@@H]1[C@@H](O)C#Cc1ccccc1F please.
6.49

Another: CN1C(=O)C[C@H](c2ccccc2)[C@@H]1[C@@H](O)C#Cc1ccccn1
5.82

----------
Target protein (sequence): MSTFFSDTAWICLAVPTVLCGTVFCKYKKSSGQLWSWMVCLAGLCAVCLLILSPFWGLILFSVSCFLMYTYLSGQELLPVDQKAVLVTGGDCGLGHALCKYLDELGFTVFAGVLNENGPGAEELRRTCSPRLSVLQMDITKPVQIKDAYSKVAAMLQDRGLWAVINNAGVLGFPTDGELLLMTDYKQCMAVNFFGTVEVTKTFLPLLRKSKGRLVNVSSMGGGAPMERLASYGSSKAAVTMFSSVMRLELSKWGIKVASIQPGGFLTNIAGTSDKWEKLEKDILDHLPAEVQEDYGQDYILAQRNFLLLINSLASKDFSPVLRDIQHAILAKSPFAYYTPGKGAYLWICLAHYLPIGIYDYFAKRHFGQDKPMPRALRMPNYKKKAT
outcome-measure: pIC50
// pIC50 here means minus log10 of the molar concentration (mol/L)

Below, each entry is followed by its recorded pIC50 result.
structure=CN1C(=O)C[C@H](c2ccccc2)[C@@H]1[C@@H](O)c1ccc2c(c1)OCO2 reported_result=6.02
structure=CN1C(=O)C[C@H](c2ccccc2)[C@@H]1[C@@H](O)C#Cc1cccc(N)c1 reported_result=6.43
structure=COc1ccc([C@H](O)[C@H]2[C@@H](c3ccccc3)CC(=O)N2C)cc1 reported_result=5.91
structure=CN1C(=O)C[C@H](c2ccccc2)[C@@H]1[C@@H](O)c1ccc(-c2ccccc2)o1 reported_result=5.49
structure=CN1C(=O)C[C@H](c2ccccc2)[C@@H]1[C@@H](O)c1cc2ccccc2s1 reported_result=6.23

Need pIC50, item CO[C@@H](c1cccs1)[C@H]1[C@@H](c2ccccc2)CC(=O)N1C
5.41

Next compound up: CN1C(=O)C[C@H](c2ccccc2)[C@@H]1[C@@H](O)c1cccc(C(F)(F)F)c1
6.06

Also check CN1C(=O)C[C@H](c2ccccc2)[C@@H]1[C@@H](O)C#Cc1ccccc1
6.37
